# system: Genome polyprotein (West Nile virus)
# protocol.notes: West Nile NS2B-NS3 proteinase blockers – biochemical, fluorogenic substrate, primary screen (AID 577)
# condition.info: WNV NS2B-NS3 protease, fluorogenic substrate Ex360/Em465; active compounds read low
In all, about 65,000 compounds went through this assay and about 120 (0.18%) were called active. Many of the other results were omitted from the sample, so actives are more common in it than they were.
z-score strictly less than -0.3 = true (1). Otherwise false (0).

The following compounds have reported results that may help.
compound: O=C(NCc1cccnc1)c1ccc(CS(=O)(=O)c2ccc(Br)cc2)o1
system: Genome polyprotein (West Nile virus)
class: true (1)
//
compound: CCCn1c(=O)c2[nH]c(C3CCCC3)nc2n(CCC)c1=O
system: Genome polyprotein (West Nile virus)
class: false (0)

Quick check: z-score of O=C(CN1C(=O)COc2ccccc21)Nc1ccc(F)cc1 under -0.3?
false (0)

Quick check: z-score of Cn1c(=O)[nH]c(=O)c2c1nc(NCCCn1ccnc1)n2Cc1cccc(Br)c1 under -0.3?
false (0)

Quick check: z-score of CC(=O)C1=C(O)C(=O)N(c2ccc(S(N)(=O)=O)cc2)C1c1ccccc1F (stereo not given) under -0.3?
false (0)

* * *

# system: Genome polyprotein (West Nile virus)
# protocol.notes: West Nile NS2B-NS3 proteinase blockers – biochemical, fluorogenic substrate, primary screen (AID 577)
# condition.info: WNV NS2B-NS3 protease, fluorogenic substrate Ex360/Em465; active compounds read low
In all, about 65,000 compounds went through this assay and about 120 (0.18%) were called active. This excerpt belongs to a sample that is enriched for actives.
measured.property: z-score

molecule: Cc1cccc(-n2c(N)cc(=O)nc2SC(C)C(=O)NC2CCCCC2)c1 (stereo unspecified)
z-score: -0.09 (inactive)

Request body: readout z-score, system Genome polyprotein (West Nile virus), query Cn1c(=O)c2c(ncn2CC(=O)N2CCN(c3ccccc3)CC2)n(C)c1=O . Return the value.
0.25 (inactive)

Request body: readout z-score, system Genome polyprotein (West Nile virus), query O=C(NCc1cn2ccsc2n1)Nc1ccc(Cl)cc1 . Return the value.
-0.25 (inactive)

Request body: readout z-score, system Genome polyprotein (West Nile virus), query C[C@H](NC(=O)NCCc1ccccc1)C(=O)O . Return the value.
0.46 (inactive)

Request body: readout z-score, system Genome polyprotein (West Nile virus), query Cc1noc(C)c1COC(=O)Cn1c(C)nc2ccccc21 . Return the value.
-1.33 (inactive)

Request body: readout z-score, system Genome polyprotein (West Nile virus), query CC(C)(C)c1ccc(C(=O)NCCC(=O)NCc2ccco2)cc1 . Return the value.
0.25 (inactive)

Request body: readout z-score, system Genome polyprotein (West Nile virus), query CCCCc1nc2ccccc2c(NC(=O)CN2CCN(C)CC2)c1CCC . Return the value.
-1.27 (inactive)

Request body: readout z-score, system Genome polyprotein (West Nile virus), query CCOC(=O)N1CCC(NC(=O)C(C)n2c3ccccc3c3cnn(C)c(=O)c32)CC1 (stereo unspecified) . Return the value.
-0.72 (inactive)

Request body: readout z-score, system Genome polyprotein (West Nile virus), query Cc1cc2cc(CN(Cc3cccs3)Cc3nnnn3CC3CCCO3)c(=O)[nH]c2cc1C (stereo unspecified) . Return the value.
-0.04 (inactive)

Request body: readout z-score, system Genome polyprotein (West Nile virus), query COc1ccc(C)c2sc(=NC(=O)c3ccc(C#N)cc3)n(C)c12 . Return the value.
0.36 (inactive)

Request body: readout z-score, system Genome polyprotein (West Nile virus), query O=C(Cc1c(F)cccc1Cl)N1CCN(C(=O)c2ccco2)CC1 . Return the value.
0.71 (inactive)

Request body: readout z-score, system Genome polyprotein (West Nile virus), query Brc1cnc(N2CCCC2)nc1N1CCCCC1 . Return the value.
-0.6 (inactive)

Request body: readout z-score, system Genome polyprotein (West Nile virus), query NS(=O)(=O)c1cc2c(cc1Cl)NC(C(Cl)Cl)NS2(=O)=O (stereo unspecified) . Return the value.
1.86 (inactive)

* * *

# system: Genome polyprotein (West Nile virus) (UniProt P06935)
# Sequence (P06935 1371-1501 limits assumed): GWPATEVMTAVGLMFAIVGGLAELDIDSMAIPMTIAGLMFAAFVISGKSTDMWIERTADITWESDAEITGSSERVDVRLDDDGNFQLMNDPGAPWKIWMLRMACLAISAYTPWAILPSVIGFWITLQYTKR
# Sequence (P06935 1502-1679 limits assumed): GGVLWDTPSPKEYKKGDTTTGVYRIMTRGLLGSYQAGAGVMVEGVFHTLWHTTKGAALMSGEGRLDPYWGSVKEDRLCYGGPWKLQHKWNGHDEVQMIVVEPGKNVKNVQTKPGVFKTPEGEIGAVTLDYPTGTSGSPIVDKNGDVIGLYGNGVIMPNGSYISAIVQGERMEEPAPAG
# protocol.notes: West Nile NS2B-NS3 proteinase blockers – biochemical, fluorogenic substrate, primary screen (AID 577)
# condition.info: WNV NS2B-NS3 protease, fluorogenic substrate Ex360/Em465; active compounds read low
Among all 65,000 compounds or so, about 120 (0.18%) were called active. The sample holds actives, similar compounds and a random draw of the others, so the mix is not that of the screen.
measured.property: z-score
Reply with just the number.

Example results:
molecule: CC(=O)Oc1ccc2c(C)c(CC(C)O)c(=O)oc2c1 (stereo not given)
z-score: 5.37
//
molecule: O=C(c1ccccc1)c1cccn1CC(=O)N1CCN(c2ccc(F)cc2)CC1
z-score: -1.05
//
molecule: CCOC(=O)c1ccc(Nc2cc(C)nc3nc(C)nn23)cc1
z-score: -0.96
//
molecule: Cc1cc2nc(-c3ccc(NC(=O)c4cccnc4)cc3)oc2cc1C
z-score: -0.13

Now consider the entry below.
Any idea what z-score was measured for CCCCn1c(CCCNC(=O)CC)nc2ccccc21 ?
0.2

* * *

# system: Genome polyprotein (West Nile virus) (UniProt P06935)
# protocol.notes: West Nile NS2B-NS3 proteinase blockers – biochemical, fluorogenic substrate, primary screen (AID 577)
# condition.info: WNV NS2B-NS3 protease, fluorogenic substrate Ex360/Em465; active compounds read low
Hit rate of the full screen: of about 65,000 compounds, about 120 (0.18%) were called active. Shown is part of a subset that was picked to be rich in actives.
Parameter: z-score. Scope: all listed entries.
Reply with just the number.

molecule: O=S(=O)(NCc1ccccn1)c1ccc(F)cc1
measured.property: z-score
meas.value: -0.56
//
molecule: Cc1cccc(N2CC(C)Cn3c2nc2c3c(=O)n(CC(=O)OCc3ccccc3)c(=O)n2C)c1 (stereo not drawn)
measured.property: z-score
meas.value: -0.58

Now consider the entry below.
Any idea what z-score was measured for CCCC(=O)Nc1cccc(-c2cn3ccsc3n2)c1 ?
-1.1

FYI, the data here is from PubChem BioAssay AID577.
